Tested on: Mus musculus
Experiment: Antinephritic activity against Graft-Versus-Host Disease (GVHD) induced (C57BL/6DBA/2)F1 mice at a dose of 32 mg/kg administered perorally
Assay type: functional
Conditions: route oral
The molecules listed here are annotated with their inhibition in vivo at 32 mg/kg.
readout: inhibition in vivo at 32 mg/kg (%)

>  <molecule_smiles>
CN1C(=O)/C(=C(/S)N(C)c2ccccc2)C(=O)c2cc(Cl)ccc21

>  <measurement>
100

$$$$
>  <molecule_smiles>
CN1C(=O)/C(=C(/S)N(C)c2ccccc2)C(=O)c2ccccc21

>  <measurement>
85

$$$$
>  <molecule_smiles>
C=CCN(C(=S)c1c(O)c2cc(Cl)ccc2n(C)c1=O)c1ccccc1

>  <measurement>
96

$$$$
>  <molecule_smiles>
COc1cccc(N(C)/C(S)=C2/C(=O)c3cc(Cl)ccc3N(C)C2=O)c1

>  <measurement>
74

$$$$
>  <molecule_smiles>
CSc1ccc(N(C)C(=O)c2c(O)c3cc(SC)ccc3n(C)c2=O)cc1

>  <measurement>
87

$$$$
>  <molecule_smiles>
COc1ccc(N(C)/C(S)=C2/C(=O)c3cc(Cl)ccc3N(C)C2=O)cc1

>  <measurement>
97

$$$$
>  <molecule_smiles>
CSc1ccc2c(c1)c(O)c(C(=S)N(C)c1ccccc1)c(=O)n2C

>  <measurement>
99

$$$$
>  <molecule_smiles>
CS/C(=N\c1ccccc1)c1c(O)c2cc(SC)ccc2n(C)c1=O

>  <measurement>
84

$$$$
>  <molecule_smiles>
CSc1ccc2c(c1)c(=O)c(C(=S)N(C)c1ccccc1)c(S)n2C

>  <measurement>
37

$$$$
>  <molecule_smiles>
CSc1ccc2c(c1)c(O)c(S(=O)(=O)N(C)c1ccccc1)c(=O)n2C

>  <measurement>
53

$$$$
>  <molecule_smiles>
CSCCN(C(=O)c1c(O)c2cc(SC)ccc2n(C)c1=O)c1ccccc1

>  <measurement>
65

$$$$
>  <molecule_smiles>
CSc1ccc2c(c1)c(=O)c(C(=O)N(C)c1ccccc1)c(S)n2C

>  <measurement>
96

$$$$
>  <molecule_smiles>
COc1ccc2c(c1)c(O)c(C(=S)N(C)c1ccccc1)c(=O)n2C

>  <measurement>
99

$$$$
>  <molecule_smiles>
CN1C(=O)/C(=C(/S)N(C)c2ccccc2)C(=O)c2ccc(Cl)cc21

>  <measurement>
-23

$$$$
>  <molecule_smiles>
CN1C(=O)/C(=C(/S)N(C)c2ccccc2)C(=O)c2cc(Br)ccc21

>  <measurement>
98

$$$$

Provenance of the data: ChEMBL document CHEMBL1134902
